# experimental target: LXRβ (Homo sapiens)
# Construct: gene NR1H2
# Sequence (P55055 whole entry): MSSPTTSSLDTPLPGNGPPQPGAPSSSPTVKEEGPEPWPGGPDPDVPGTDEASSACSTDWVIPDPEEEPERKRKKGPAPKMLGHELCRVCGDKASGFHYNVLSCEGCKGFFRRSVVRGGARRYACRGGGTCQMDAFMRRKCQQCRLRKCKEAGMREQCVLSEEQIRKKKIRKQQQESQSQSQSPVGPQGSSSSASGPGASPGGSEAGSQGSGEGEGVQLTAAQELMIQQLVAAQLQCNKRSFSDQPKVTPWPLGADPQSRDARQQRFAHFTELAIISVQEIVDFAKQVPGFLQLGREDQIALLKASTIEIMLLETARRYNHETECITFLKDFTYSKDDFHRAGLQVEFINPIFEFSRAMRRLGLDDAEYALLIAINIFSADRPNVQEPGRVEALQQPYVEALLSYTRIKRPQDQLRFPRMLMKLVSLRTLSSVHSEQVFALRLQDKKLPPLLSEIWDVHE
# assay comment: TR-FRET coactivator assay (positive control, parent agonist)
# Assay type: binding
measurement name: pEC50
Answers are plain numbers, as −log10 of the molar value.

Result for O=C(O)Cc1cccc(OCCCN(Cc2cccc(C(F)(F)F)c2Cl)CC(c2ccccc2)c2ccccc2)c1 , tested on LXRβ (Homo sapiens), pEC50: 7.70
